Tested on: Saccharomyces cerevisiae BY4741 SeMeCo community
Test: z-score of subpopulation abundance vs DMSO median, subpopulation auxotrophic for U; higher = larger share of this subpopulation than in DMSO controls
Details: 10 µM; 24 h; SM minimal medium; subpopulation (auxotrophy): U
Counter-ions that a name gives are not always drawn.
reported-endpoint: z-score of subpopulation abundance

| molecule | result |
| --- | --- |
| Cc1noc(NS(=O)(=O)c2ccc(N)cc2)c1C | 0.32 |
| Cc1ncc([N+](=O)[O-])n1C | -0.07 |
| NC[C@@H]1O[C@H](O[C@H]2[C@@H](O)[C@H](O[C@@H]3[C@@H](O)[C@H](N)C[C@H](N)[C@H]3O[C@H]3O[C@H](CN)[C@@H](O)[C@H](O)[C@H]3N)O[C@@H]2CO)[C@H](N)[C@@H](O)[C@@H]1O [Neomycin sulfate] | 0.07 |
| Nc1nc2[nH]cc(CCc3ccc(C(=O)N[C@@H](CCC(=O)O)C(=O)O)cc3)c2c(=O)[nH]1 [Pemetrexed Disodium Hydrate] | -1.03 |
| Cc1c(C(N)=O)cc([N+](=O)[O-])cc1[N+](=O)[O-] [Dinitolmide] | 0.48 |
| CCc1c(C)[nH]c2c1C(=O)C(CN1CCOCC1)CC2 (configuration not stated) [Molindone hydrochloride] | -0.6 |
| COc1cc(O)c(C(=O)Nc2nc(C(=O)NCCN(C(C)C)C(C)C)cs2)cc1OC [Acotiamide] | -0.39 |

---

Test system: Saccharomyces cerevisiae BY4741 SeMeCo community
Assay: z-score of prototroph abundance vs DMSO median; higher = larger share of this subpopulation than in DMSO controls
Settings: 10 µM; 24 h; SM minimal medium; subpopulation (auxotrophy): Prototroph
Counter-ions that a name gives are not always drawn.

| compound | test-system | z-score of prototroph abundance |
| --- | --- | --- |
| C[C@]12CC[C@@H]3c4ccc(O)cc4CC[C@H]3[C@@H]1C[C@@H](O)[C@@H]2O [Estriol] | Saccharomyces cerevisiae BY4741 SeMeCo community | 0.65 |
| CC(C)(O/N=C(\C(=O)N[C@@H]1C(=O)N2C(C(=O)[O-])=C(C[n+]3ccccc3)CS[C@H]12)c1csc(N)n1)C(=O)O [Ceftazidime] | Saccharomyces cerevisiae BY4741 SeMeCo community | 0.11 |
| CN[C@@H]1[C@@H](O)[C@@H](O[C@@H]2[C@@H](O)[C@H](O[C@H]3OC(CN)=CC[C@H]3N)[C@@H](N)C[C@H]2N)OC[C@]1(C)O [Sisomicin sulfate] | Saccharomyces cerevisiae BY4741 SeMeCo community | -0.71 |
| COc1cc([C@@H]2c3cc4c(cc3[C@@H](O[C@@H]3O[C@@H]5CO[C@@H](C)O[C@H]5[C@H](O)[C@H]3O)[C@H]3COC(=O)[C@H]23)OCO4)cc(OC)c1O [Etoposide] | Saccharomyces cerevisiae BY4741 SeMeCo community | -0.82 |
| CCCOc1ccc2[nH]c(NC(=O)OC)nc2c1 [Oxibendazole] | Saccharomyces cerevisiae BY4741 SeMeCo community | -1.22 |
| CCCNCC(O)COc1ccccc1C(=O)CCc1ccccc1 (configuration not stated) [Propafenone HCl] | Saccharomyces cerevisiae BY4741 SeMeCo community | 0.15 |
| CCn1cc(C(=O)O)c(=O)c2cc(F)c(N3CCNCC3)nc21 [Enoxacin Sesquihydrate] | Saccharomyces cerevisiae BY4741 SeMeCo community | -0.92 |
